# targetOrTestSystem: BV2540 (recombinant CoV S glycoprotein, BA.5) (SARS-CoV-2, UniProt P0DTC2 14-1273)
# assayInfo: hACE2 receptor inhibition ELISA on coated rS; competitor hACE2-His
measureName: IC50 (µg/mL)
Number in µg/mL, nothing else.

>  <binder>
322.3 (antibody, V domains shown) VH: RVQLQQSGPELVKPGASVTISCKASGYIFTSDYIHWVKQRPGQGPEWIGWIYPGNINTKYNEKFKGKATLTADKSSSTAYMQLSSLTSEDSAVYFCARDDGNLYYYAMDYWGQGTSVTVSS VL: NIVLTQSPASLAVSLGQRATISCRASESVDSYGSSFMHWYQQKPGQPPKLLIYLASNLESGVPARFSGSGSRTDFTLTIDPVEADDAATYYCQQNNEDPRTFGGGTKLEIK

>  <IC50, µg/mL>
0.779

$$$$

Please examine the following record next.
Tell me IC50 reported for 425.6 (antibody, V domains shown) VH: VQLKQSGPSLVQPSQSLSITCTVSGFSLTSYGIHWVRQSPGKGLEWLGVIWRGGSTDYNAAFMSRLTITKDNSKSQVFFKMNSLQADDTAIYYCATHTEGDDVDYWGQGTSVTVSS VL: QIVLTQSPAIMSVSPGEKVTMTCSASSTMSFMYWYQQKPGSSPRLLIYDTSNLASGVPVRFSGSGSGTSYSLTISRVEAEDAATYYCQQWNTYPLTFGAGTKLELKR 0.028
